- test_summary: Intravenous pharmacokinetic study in rats
- Assay type: in vivo, male Sprague–Dawley rats
- condition_details: male, Sprague-Dawley, rat, plasma, iv, 5 mg/kg
experimental_readout: Vd (L/kg)
Numbers only here, please. The scale is L/kg.

Input line: # input molecule: CC(CCCn1c(=O)sc2cc(F)ccc21)N1CCN(C2CCCCC2)CC1 (stereo not shown) ; wanted: its Vd
Output line: 30.1
